- Tested target: UniProt Q99814
- Sequence (Q99814 whole entry): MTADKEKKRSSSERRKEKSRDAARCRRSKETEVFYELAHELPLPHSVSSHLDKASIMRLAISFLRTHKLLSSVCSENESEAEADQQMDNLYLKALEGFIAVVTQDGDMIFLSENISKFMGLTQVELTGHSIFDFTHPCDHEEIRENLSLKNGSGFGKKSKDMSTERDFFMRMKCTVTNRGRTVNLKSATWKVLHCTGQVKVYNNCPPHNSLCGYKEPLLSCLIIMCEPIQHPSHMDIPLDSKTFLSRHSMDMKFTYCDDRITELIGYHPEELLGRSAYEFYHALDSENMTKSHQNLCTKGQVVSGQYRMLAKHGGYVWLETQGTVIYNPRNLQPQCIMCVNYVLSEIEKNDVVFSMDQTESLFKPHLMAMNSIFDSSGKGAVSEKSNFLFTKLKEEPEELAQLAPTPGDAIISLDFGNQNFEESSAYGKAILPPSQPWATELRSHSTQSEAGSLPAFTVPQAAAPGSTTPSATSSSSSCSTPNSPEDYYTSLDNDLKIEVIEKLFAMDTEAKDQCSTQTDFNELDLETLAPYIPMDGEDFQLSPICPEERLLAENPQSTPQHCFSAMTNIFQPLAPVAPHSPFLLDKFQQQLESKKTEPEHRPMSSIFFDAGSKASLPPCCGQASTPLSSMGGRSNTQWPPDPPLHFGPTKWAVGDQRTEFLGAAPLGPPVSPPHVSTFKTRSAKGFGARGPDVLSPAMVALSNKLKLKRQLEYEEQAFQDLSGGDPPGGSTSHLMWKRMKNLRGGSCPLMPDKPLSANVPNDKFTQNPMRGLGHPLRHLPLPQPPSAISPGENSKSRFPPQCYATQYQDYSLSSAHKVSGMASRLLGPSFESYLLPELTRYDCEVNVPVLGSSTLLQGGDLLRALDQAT
- Assay notes: VEGF ELISA Assay
- Assay type: cell-based
Measurement type: pEC50
In simple prose, pEC50 is minus the logarithm base ten of a concentration in moles per litre.

// pEC50 value for [2H][C@]1(O)c2c(ccc(Oc3cc(F)cc(C#N)c3)c2C#N)C(F)(F)C1(F)F [I-13a] : 6.33

// pEC50 value for [2H]C1(O)c2c(ccc(Oc3cncc(F)c3)c2C#N)C(F)(F)C1(F)F (stereo not drawn) : 6.74

// pEC50 value for [2H][C@@]1(O)c2c(ccc(Oc3cc(F)cc(C#N)c3)c2C#N)C(F)(F)C1(F)F [I-13b] : 7.92
